Just for reference, the supplement of paper PMC10724198 is where these values come from.

Provide the recorded protein stability index for the entries that follow.
Test system: Saccharomyces cerevisiae;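 further: PSI is a weighted mean of sequencing reads over stability bins, variants kept only with over 10 reads, mCherry proximal and sfGFP distal, peptide attached via GGGS linker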
Assay: protein stability index of tFT-peptide fusion (C-terminal peptide) (PSI (0-1 scale)); higher = more stable (slower turnover)
Details: genetic background: wild type; temperature: 30 C
Please reply with the value in numeric form only.

Task: For the sequence shown here, VVLVVVWWGGVE , give the reported protein stability index.
Output: 0.258

Task: For the sequence shown here, WSHVPLAPLSCF , give the reported protein stability index.
Output: 0.315

Task: For the sequence shown here, SLFFCIPIHSVF , give the reported protein stability index.
Output: 0.423

Task: For the sequence shown here, EWVWVVFSCVSW , give the reported protein stability index.
Output: 0.32

Task: For the sequence shown here, CLWNFWVRFLLL , give the reported protein stability index.
Output: 0.139

Task: For the sequence shown here, DTHSRARAVLIA , give the reported protein stability index.
Output: 0.301

Task: For the sequence shown here, MLCVFVFIWYFV , give the reported protein stability index.
Output: 0.208

Task: For the sequence shown here, ATLWVWCFSSHV , give the reported protein stability index.
Output: 0.447

Task: For the sequence shown here, VVMASSIIVVAG , give the reported protein stability index.
Output: 0.142

Task: For the sequence shown here, LVLSVWFFNCTS , give the reported protein stability index.
Output: 0.283

Task: For the sequence shown here, VCRGWCVVRYIL , give the reported protein stability index.
Output: 0.18

Task: For the sequence shown here, FPSCYIWEVEVM , give the reported protein stability index.
Output: 0.333

Task: For the sequence shown here, IFLCRNGAVFIC , give the reported protein stability index.
Output: 0.0798

Task: For the sequence shown here, LFTVCMIIQMVH , give the reported protein stability index.
Output: 0.1

Task: For the sequence shown here, RVRNSQVVAVVG , give the reported protein stability index.
Output: 0.382

Task: For the sequence shown here, VVVLFGRLVVIC , give the reported protein stability index.
Output: 0.332

Task: For the sequence shown here, CMLPWPILLCPF , give the reported protein stability index.
Output: 0.389

Task: For the sequence shown here, ISSAGHNIRFLA , give the reported protein stability index.
Output: 0.129

Task: For the sequence shown here, GCVGLSFCVWVG , give the reported protein stability index.
Output: 0.211

Task: For the sequence shown here, GDSVRVIIFCLN , give the reported protein stability index.
Output: 0.136

Task: For the sequence shown here, VYCTFLFAYTLP , give the reported protein stability index.
Output: 0.443

Task: For the sequence shown here, HRLQFKGYPICA , give the reported protein stability index.
Output: 0.223

Task: For the sequence shown here, FLCFFGGCFFLV , give the reported protein stability index.
Output: 0.401

Task: For the sequence shown here, IKCVPLVWRLTV , give the reported protein stability index.
Output: 0.123

Task: For the sequence shown here, SRRSIGAYLFVS , give the reported protein stability index.
Output: 0.208

Task: For the sequence shown here, RCRLYLNVVVLC , give the reported protein stability index.
Output: 0.122

Task: For the sequence shown here, RVIRHLRRISNF , give the reported protein stability index.
Output: 0.16

Task: For the sequence shown here, CPALTFCLLLSS , give the reported protein stability index.
Output: 0.383

Task: For the sequence shown here, PYPSVIFFLHVY , give the reported protein stability index.
Output: 0.169

Task: For the sequence shown here, FCSVFAHFLLCH , give the reported protein stability index.
Output: 0.207

Task: For the sequence shown here, DYARAWRTEVVC , give the reported protein stability index.
Output: 0.332

Task: For the sequence shown here, VGIVWELGCWMG , give the reported protein stability index.
Output: 0.303

Task: For the sequence shown here, EFVACFRLLVHG , give the reported protein stability index.
Output: 0.269

Task: For the sequence shown here, VFFFFSLVNFRV , give the reported protein stability index.
Output: 0.419

Task: For the sequence shown here, FPFVYRSVLLFF , give the reported protein stability index.
Output: 0.0991

Task: For the sequence shown here, VSLIFCLFFLSC , give the reported protein stability index.
Output: 0.404

Task: For the sequence shown here, FPVSSRSFSFIP , give the reported protein stability index.
Output: 0.656

Task: For the sequence shown here, FFFSFSFPFLSF , give the reported protein stability index.
Output: 0.477

Task: For the sequence shown here, PSFLAIRVCLLV , give the reported protein stability index.
Output: 0.0766

Task: For the sequence shown here, WSFPFFLLPFLF , give the reported protein stability index.
Output: 0.211

Task: For the sequence shown here, GQFVISVRFLYE , give the reported protein stability index.
Output: 0.417

Task: For the sequence shown here, FVLFCWFFCIVW , give the reported protein stability index.
Output: 0.226

Task: For the sequence shown here, QVVWAVPRICLV , give the reported protein stability index.
Output: 0.358

Task: For the sequence shown here, SLAPPPPLLILR , give the reported protein stability index.
Output: 0.348

Task: For the sequence shown here, GVLTVVLQVGVV , give the reported protein stability index.
Output: 0.304

Task: For the sequence shown here, SLARPGLCFVIA , give the reported protein stability index.
Output: 0.342

Task: For the sequence shown here, ICIFWLITGLWL , give the reported protein stability index.
Output: 0.324

Task: For the sequence shown here, GGGGLRVVVWLV , give the reported protein stability index.
Output: 0.124

Task: For the sequence shown here, RHIPSIILAHVV , give the reported protein stability index.
Output: 0.192

Task: For the sequence shown here, IKIQPKKRISLI , give the reported protein stability index.
Output: 0.174

Task: For the sequence shown here, VRNYWKYVVIFP , give the reported protein stability index.
Output: 0.569

Task: For the sequence shown here, FLYFLLQFLCSG , give the reported protein stability index.
Output: 0.421

Task: For the sequence shown here, WLCVFVFGIFFV , give the reported protein stability index.
Output: 0.186

Task: For the sequence shown here, LLFSVLLLGVGF , give the reported protein stability index.
Output: 0.324

Task: For the sequence shown here, LIARYTFLFCLC , give the reported protein stability index.
Output: 0.354

Task: For the sequence shown here, VWFCCLFFCFFV , give the reported protein stability index.
Output: 0.367

Task: For the sequence shown here, GWCLLRVLVLVW , give the reported protein stability index.
Output: 0.0811

Task: For the sequence shown here, SVIAYTKPLWFR , give the reported protein stability index.
Output: 0.361

Task: For the sequence shown here, AAFLGVLCWCWG , give the reported protein stability index.
Output: 0.351

Task: For the sequence shown here, EKKKKKRKNKIK , give the reported protein stability index.
Output: 0.652

Task: For the sequence shown here, VVFWWGHLLVSA , give the reported protein stability index.
Output: 0.0919

Task: For the sequence shown here, LRVGVRSWGGKW , give the reported protein stability index.
Output: 0.435

Task: For the sequence shown here, FLFWVLLVGCSF , give the reported protein stability index.
Output: 0.206

Task: For the sequence shown here, IFRVTGFPIYIF , give the reported protein stability index.
Output: 0.233

Task: For the sequence shown here, GVARALFLWKAV , give the reported protein stability index.
Output: 0.317

Task: For the sequence shown here, VKVIILYKIIEV , give the reported protein stability index.
Output: 0.323

Task: For the sequence shown here, ESRRGILFIYIN , give the reported protein stability index.
Output: 0.0867

Task: For the sequence shown here, GTIFLIRVLLFG , give the reported protein stability index.
Output: 0.213

Task: For the sequence shown here, GHFILFWVFCFM , give the reported protein stability index.
Output: 0.303

Task: For the sequence shown here, ALPLRSNILSVF , give the reported protein stability index.
Output: 0.283

Task: For the sequence shown here, WLLVVCRGLVFR , give the reported protein stability index.
Output: 0.236

Task: For the sequence shown here, RVTEYHTKYKIV , give the reported protein stability index.
Output: 0.0674

Task: For the sequence shown here, ILCYVWLVFSGF , give the reported protein stability index.
Output: 0.204

Task: For the sequence shown here, PPPHPPPATFLS , give the reported protein stability index.
Output: 0.407

Task: For the sequence shown here, FLWLCLLSLFFR , give the reported protein stability index.
Output: 0.434

Task: For the sequence shown here, GFVCFIHLFLCF , give the reported protein stability index.
Output: 0.316

Task: For the sequence shown here, LFHFPSWIFCLL , give the reported protein stability index.
Output: 0.251

Task: For the sequence shown here, FGEDFCHLLWCC , give the reported protein stability index.
Output: 0.374

Task: For the sequence shown here, LGWFVDFVFVVW , give the reported protein stability index.
Output: 0.274

Task: For the sequence shown here, QIGSMLGVQGVG , give the reported protein stability index.
Output: 0.467

Task: For the sequence shown here, GCDVWCLVLRMG , give the reported protein stability index.
Output: 0.435

Task: For the sequence shown here, PLCLFPPLLVFL , give the reported protein stability index.
Output: 0.387
